# Tested on: Pseudocercospora fijiensis
# Protocol Summary: Antifungal activity against Pseudocercospora fijiensis assessed as inhibition of mycelial growth under 12 hr photoperiod measured after 8 days
# Format: functional, organism-based
Calls of active or inactive are those of the source. The rule behind the calls is not given here.
Respond only with the outcome that fits, drawn from active, inactive

As a guide, the following entries are already answered.
O=C1C(Cl)=Cc2cccc3cccc1c23 | active
COC1=Cc2cccc3cccc(c23)C1=O | inactive
O=C1C(O)=Cc2cccc3cccc1c23 | inactive
COc1ccc2cccc3c2c1C=CC3=O | inactive
O=C1C=C(O)c2cccc3cccc1c23 | inactive

Now look at this one.
Q: Outcome logged for O=C1C(Br)=Cc2cccc3cccc1c23 in this assay:
Ans: active
